Please provide measured half-life at 100 µM for the entries that follow.
# test-details: Half life in Sprague-Dawley rat liver microsomes at 100 uM incubated for 60 mins in presence of NADPH by HPLC analysis
# Type: ADME, Microsome
Form entry: value (min) — number only.

Param item = `NC(=O)c1cccc(NC(=O)[C@@H](NC(=O)c2ccc(N3CCOCC3)cc2)c2ccc(OCc3ccccc3)cc2)c1` ; retrieve measured half-life at 100 µM. 27

Also check `CCCCCC(=O)N[C@H](C(=O)NCc1ccc(NC(=N)N)cc1)c1ccc(OCc2ccccc2)cc1` 55

---

# test-details: Passive membrane permeability of the compound in phosphate buffered saline assessed as concentration of the compound in acceptor plate at 200 uM incubated for 5 hrs by PAMPA assay based HPLC analysis
# Type: ADME
metric: Activity (µM)
Form entry: value (µM) — number only.

Param item = `NC(=O)c1cccc(NC(=O)[C@@H](NC(=O)c2ccc(-c3ccco3)cc2)c2ccc(OCc3ccccc3)cc2)c1` ; retrieve measured Activity. 2.1

Also check `NC(=O)c1cccc(NC(=O)[C@@H](NC(=O)c2ccc(N3CCOCC3)cc2)c2ccc(OCc3ccccc3)cc2)c1` 8.1

Also check `NC(=O)c1cccc(NC(=O)[C@@H](NC(=O)c2ccc(Oc3ccccc3)cc2)c2ccc(OCc3ccccc3)cc2)c1` 9.5

Also check `NC(=O)c1cccc(NC(=O)[C@@H](NC(=O)c2ccc(Oc3ccc(C(F)(F)F)cc3)cc2)c2ccc(OCc3ccccc3)cc2)c1` 6.9

Also check `NC(=O)c1cccc(NC(=O)[C@@H](NC(=O)c2ccc(-c3ccc(Cl)cc3)cc2)c2ccc(OCc3ccccc3)cc2)c1` 3.7

Also check `NC(=O)c1cccc(NC(=O)[C@@H](NC(=O)c2ccc(Oc3ccc4c(c3)OCO4)cc2)c2ccc(OCc3ccccc3)cc2)c1` 3.7

Also check NC(=O)N1c2ccccc2C=Cc2ccccc21 [CARBAMAZEPINE] 42

Also check `Cn1c(=O)c2c(ncn2C)n(C)c1=O` 33
